Measured values drawn from patent US11999759B2 for this set.

List of Ki values.
target.system: IMP-1 (Serratia marcescens)
Sequence (P52699 19-246, looked up, species assumed): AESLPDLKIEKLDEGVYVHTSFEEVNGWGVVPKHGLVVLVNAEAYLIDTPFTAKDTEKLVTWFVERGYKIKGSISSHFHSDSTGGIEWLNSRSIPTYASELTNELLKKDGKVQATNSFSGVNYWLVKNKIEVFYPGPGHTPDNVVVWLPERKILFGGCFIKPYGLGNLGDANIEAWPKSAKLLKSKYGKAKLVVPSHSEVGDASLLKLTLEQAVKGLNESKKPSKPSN
assay.explanation: Inhibition of imipenem cleavage by purified IMP-1
cond: imipenem reporter substrate; 37° C.; read-out: Ki (IMP-1, IMI)
Method: Ki values of inhibition of purified class B enzymes NDM-1 and IMP-1 were determined spectrophotometrically using imipenem as reporter substrate. Purified enzymes were mixed with various concentrations of inhibitors in reaction buffer and incubated for 10 min at room temperature. Imipenem was added and substrate cleavage profiles were recorded at 294 nm every 30 seconds for 30 minutes at 37° C. […]

compound=O=C(O)c1c(F)ccc2c1OB(O)[C@H]1C[C@@H]21 reading="> 1000 nM"
compound=COc1ccc2c(c1C(=O)O)OB(O)C=C2 reading="> 1000 nM"
compound="O=C(O)c1cccc2c1OB(O)C1CC21 (stereo not drawn)" reading="100 to 1000 nM"
compound=O=C(O)c1cccc2c1OB(O)[C@@H]1C[C@H]21 reading="< 100 nM"

Short answer for COc1ccc2c(c1C(=O)O)OB(O)C1(CO)CC21 (stereo not drawn) : Ki was < 100 nM

Short answer for O=C(O)c1c(F)c(F)cc2c1OB(O)C1CC21 (stereo not drawn) : Ki was > 1000 nM

Short answer for O=C(O)c1c(F)ccc2c1OB(O)C1CC21 (stereo not drawn) : Ki was > 1000 nM

Short answer for COc1ccc2c(c1C(=O)O)OB(O)[C@@H]1COC[C@H]21 : Ki was > 1000 nM

Short answer for COc1ccc2c(c1C(=O)O)OB(O)CC21CC1 : Ki was 100 to 1000 nM

* * *

target.system: VIM-1 (Pseudomonas aeruginosa, UniProt A0A0F7KYQ8)
assay.explanation: Inhibition of nitrocefin cleavage by purified VIM-1
cond: nitrocefin reporter substrate; 10 min preincubation at room temperature; read-out: Ki (VIM-1, NCF)
quantity.measured: Ki

Look over these answered cases.
molecule="COc1ccc2c(c1C(=O)O)OB(O)C1C2[C@H]2C=C[C@@H]1C2 (stereo partly drawn)" target_system="VIM-1 (Pseudomonas aeruginosa, UniProt A0A0F7KYQ8)" reading="0.1 to 1 µM"
molecule="COc1ccc2c(c1C(=O)O)OB(O)C1C2[C@H]2CC[C@@H]1C2 (stereo partly drawn)" target_system="VIM-1 (Pseudomonas aeruginosa, UniProt A0A0F7KYQ8)" reading="< 0.1 µM"
molecule=O=C(O)c1cccc2c1OB(O)CC21CC1 target_system="VIM-1 (Pseudomonas aeruginosa, UniProt A0A0F7KYQ8)" reading="> 1 µM"
molecule="O=C(O)c1c(F)ccc2c1OB(O)C1CC21 (stereo not drawn)" target_system="VIM-1 (Pseudomonas aeruginosa, UniProt A0A0F7KYQ8)" reading="0.1 to 1 µM"
molecule=O=C(O)c1c(F)ccc2c1OB(O)[C@H]1C[C@@H]21 target_system="VIM-1 (Pseudomonas aeruginosa, UniProt A0A0F7KYQ8)" reading="> 1 µM"

Short answer for O=C(O)c1c(OCCF)ccc2c1OB(O)C1CC21 (stereo not drawn) : Ki was < 0.1 µM

Short answer for COc1ccc2c(c1C(=O)O)OB(O)C1=C2COC1 : Ki was > 1 µM

Short answer for COc1ccc2c(c1C(=O)O)OB(O)[C@H]1C[C@@H]21 : Ki was 0.1 to 1 µM

Short answer for O=C(O)[C@H]1/C(=C/CO)O[C@@H]2CC(=O)N21 [Clavulanic Acid, reference compound] : Ki was > 1 µM
